target: T1, CD3εδ heterodimer (Homo sapiens (Human), UniProt P07766 22-126; P04234 22-100); test: SPR, Biacore T200; antibody captured on Protein G (CM3 chip), CD3εδ heterodimer as analyte, single cycle kinetics, 37 C
T1 construct: also called CD3ε8
T1 sequence (P07766 other isoform, or with tags, fused parts or gaps mutant limits assumed, chain 1 of 2): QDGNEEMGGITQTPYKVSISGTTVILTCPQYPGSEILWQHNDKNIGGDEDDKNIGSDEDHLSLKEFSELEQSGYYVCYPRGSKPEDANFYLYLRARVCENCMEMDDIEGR
T1 sequence (P04234 other isoform, or with tags, fused parts or gaps mutant limits assumed, chain 2 of 2): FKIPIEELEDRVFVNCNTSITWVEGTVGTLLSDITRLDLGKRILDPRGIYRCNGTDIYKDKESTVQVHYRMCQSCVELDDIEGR
Please go through the items and note down their koff.
Write the number in s⁻¹ without appending the unit.

Check the records and state koff for AN121H-F760mnP17/GLS3000-k0 (AN121) (antibody, human IgG1, kappa, N297A, V domains shown) VH: QVQLVESGGGLVQPGRSLRLSCAASGFTFSNAWMHWVRQAPGKGLEWVAQIKDKANGYNAYYAESVKGRFTISRDDSKNSIYLQMNSLKTEDTAVYYCRYVHYTTYAGFSYKFGVDAWGQGTTVTVSS VL: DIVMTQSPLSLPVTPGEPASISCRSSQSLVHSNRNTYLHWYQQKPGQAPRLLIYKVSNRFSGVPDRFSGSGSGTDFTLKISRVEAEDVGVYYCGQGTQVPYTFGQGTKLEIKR
0.000723

Check the records and state koff for CE115HA000-F760mnP17/GLS3000-k0 (Humanized anti-CD3 antibody) (antibody, human IgG1, kappa, N297A, V domains shown) VH: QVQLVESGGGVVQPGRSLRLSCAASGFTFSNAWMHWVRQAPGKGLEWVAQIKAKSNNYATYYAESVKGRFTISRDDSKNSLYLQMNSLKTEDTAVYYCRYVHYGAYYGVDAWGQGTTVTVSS VL: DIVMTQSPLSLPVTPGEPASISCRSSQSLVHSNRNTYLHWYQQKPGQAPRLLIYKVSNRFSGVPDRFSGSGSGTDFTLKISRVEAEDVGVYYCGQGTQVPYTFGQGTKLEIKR
0.0288

Check the records and state koff for CE115VH-F760mnP17/rCE115VL-k0 (Rat anti-CD3 antibody) (antibody, human IgG1, kappa, N297A, V domains shown) VH: EVQLVETGGSLVQPGKSLKLTCATSGFTFSNAWMHWVRQSPEKQLEWVAQIKAKSNNYATYYAESVKGRFTISRDDSKSNIYLQMNSLKEEDTAVYYCRYVHYGAYYGVDAWGQGTSVTVSS VL: DVVMTQTPVSMSVSLGGQVSISCRSSQSLVHNNGNTYVSWYIQKPSQSPQLLIYKVSNRFSGISDRFSGSGSGTDFTLKISRVEPDDLGVYYCGQGTQDPYTFGAGTKLELKR
0.00771

Check the records and state koff for CE115VH-F760mnP17/GLS3000-k0 (Combination of rat anti-CD3 antibody and human anti-CD3 antibody) (antibody, human IgG1, kappa, N297A, V domains shown) VH: EVQLVETGGSLVQPGKSLKLTCATSGFTFSNAWMHWVRQSPEKQLEWVAQIKAKSNNYATYYAESVKGRFTISRDDSKSNIYLQMNSLKEEDTAVYYCRYVHYGAYYGVDAWGQGTSVTVSS VL: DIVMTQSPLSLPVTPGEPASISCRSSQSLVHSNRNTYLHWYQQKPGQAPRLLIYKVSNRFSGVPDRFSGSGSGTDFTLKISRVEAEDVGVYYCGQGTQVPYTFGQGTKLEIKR
0.0124
